Entries and their measured IC50 follow.
Tested System: Human cGAS amino acids 155-522 (Homo sapiens (Human), UniProt Q8N884)
Sequence (Q8N884 157-522): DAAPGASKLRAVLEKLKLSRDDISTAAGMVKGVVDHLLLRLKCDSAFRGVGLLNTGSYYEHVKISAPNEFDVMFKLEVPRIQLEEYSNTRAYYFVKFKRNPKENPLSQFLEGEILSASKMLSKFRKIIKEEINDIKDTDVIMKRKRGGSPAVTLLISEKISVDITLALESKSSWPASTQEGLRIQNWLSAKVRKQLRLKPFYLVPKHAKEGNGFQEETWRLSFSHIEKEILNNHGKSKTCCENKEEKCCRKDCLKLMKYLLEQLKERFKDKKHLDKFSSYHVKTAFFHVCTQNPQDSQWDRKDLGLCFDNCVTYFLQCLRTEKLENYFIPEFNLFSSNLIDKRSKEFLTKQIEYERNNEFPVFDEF
Test: cGAS biochemical activity assay (ATP remaining, Kinase-Glo Max luminescence)
Condition: human cGAS 155-522, ATP remaining (Kinase-Glo Max); read-out: cGAS IC50
Observable: IC50

[[record]]
compound = "Cc1[nH]c2c(-c3ccccc3)c(C(F)(F)F)nn2c(=O)c1C(=O)NS(=O)(=O)c1cccc(C#N)c1 [Compound A1128]"
result = "< 20 µM"

[[record]]
compound = "COc1cccc2oc(-c3c(COCC(=O)O)[nH]c4c(-c5ccccc5)c(C(F)(F)F)nn4c3=O)nc12 [Compound C1146]"
result = "< 20 µM"

[[record]]
compound = "COc1nc(N)cc2oc(-c3c(C)[nH]c4c(-c5ccccc5)c(C#N)nn4c3=O)nc12 [Compound C1218]"
result = "< 20 µM"

[[record]]
compound = "COc1cccc2oc(-c3c(COCC(F)F)[nH]c4c(-c5ccccc5)c(C(F)(F)F)nn4c3=O)nc12 [Compound C1232]"
result = "< 20 µM"


Source of measurements: patent US10738056B2
